Biological target: HRH1 (Homo sapiens)
Construct: purchased Promega (in-house HiBiT-GPCR construct library, NanoBRET)
Sequence (P35367 whole entry): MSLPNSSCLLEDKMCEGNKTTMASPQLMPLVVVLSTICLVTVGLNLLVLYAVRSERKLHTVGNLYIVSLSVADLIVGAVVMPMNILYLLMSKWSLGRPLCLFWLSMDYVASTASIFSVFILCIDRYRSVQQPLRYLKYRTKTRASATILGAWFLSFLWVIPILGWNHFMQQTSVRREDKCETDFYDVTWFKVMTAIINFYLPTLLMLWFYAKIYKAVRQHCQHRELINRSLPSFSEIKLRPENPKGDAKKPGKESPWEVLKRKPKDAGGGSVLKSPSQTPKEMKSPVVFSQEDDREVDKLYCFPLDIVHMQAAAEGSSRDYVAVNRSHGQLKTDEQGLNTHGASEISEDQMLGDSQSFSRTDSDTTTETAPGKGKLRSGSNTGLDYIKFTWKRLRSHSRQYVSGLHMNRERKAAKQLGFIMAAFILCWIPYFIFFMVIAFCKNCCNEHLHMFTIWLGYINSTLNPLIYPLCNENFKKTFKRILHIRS
Test: NanoBRET screen HiBiT-HRH1 in HEK293
Assay type: binding
Conditions: HRH1; tracer 1μM
Reported metric: NanoBRET Fold Response
Numbers only.

Here are 6 compounds. What values of NanoBRET Fold Response were reported for them?
1. N#CN=C(NCCCOc1cccc(CN2CCCCC2)c1)NCCNC(=O)CCOCCOCCOCCOCCNC(=O)CCc1ccc2n1[B-](F)(F)[N+]1=C(c3ccc[nH]3)C=CC1=C2
2. CC(C)N(CC[C@H](c1ccccc1)c1cc(CCNC(=O)c2ccc(CNC(=O)CCc3ccc4n3[B-](F)(F)[N+]3=C(c5ccc[nH]5)C=CC3=C4)cc2)ccc1O)C(C)C
3. COc1ccccc1N1CCN(CCCCN2C(=O)c3ccc(CNC(=O)CCOCCOCCOCCOCCNC(=O)CCc4ccc5n4[B-](F)(F)[N+]4=C(c6ccc[nH]6)C=CC4=C5)cc3C2=O)CC1
4. COc1ccccc1N1CCN(CCCCN2C(=O)c3ccc(CNC(=O)CCOCCNC(=O)c4ccc(CNC(=O)CCc5ccc6n5[B-](F)(F)[N+]5=C(c7ccc[nH]7)C=CC5=C6)cc4)cc3C2=O)CC1
5. CC(C)N(CC[C@H](c1ccccc1)c1cc(CCNC(=O)CCOCCOCCOCCOCCNC(=O)CCc2ccc3n2[B-](F)(F)[N+]2=C(c4ccc[nH]4)C=CC2=C3)ccc1O)C(C)C
6. CCCn1c(=O)c2[nH]c(-c3ccc(OCC(=O)NCCNC(=O)CCOCCNC(=O)c4ccc(CNC(=O)CCc5ccc6n5[B-](F)(F)[N+]5=C(c7ccc[nH]7)C=CC5=C6)cc4)cc3)nc2n(CCC)c1=O

Resp:
1. 1.08
2. 1.10
3. 2.31
4. 1.84
5. 1.58
6. 1.24
